assay: clinical; conditions: human, in vivo, 4 mg
RESULT_TYPE: Tmax

# Tmax (molecule: N[C@@H]1CC[C@@H](c2ccc(Cl)c(Cl)c2)c2ccccc21 ) is > 6 h

* * *

test: clinical; settings: human, in vivo, 4 mg
RESULT_TYPE: Cmax

The compound N[C@@H]1CC[C@@H](c2ccc(Cl)c(Cl)c2)c2ccccc21 [dasotraline] showed Cmax equal to ~1.5 ng/mL
